Sourced from patent US7875647B2

# targetSystem: Cannabinoid-1 receptor (CB1R) (Rattus norvegicus)
# Construct: The tissue obtained from the brain of SD rats was homogenized; from tissue; host or cells: brain of SD rats (membrane pellet of the homogenate)
# protocol: Cannabinoid-1 receptor (CB1R) binding affinity assay ([3H]CP-55940, rat CB-1 receptor binding protocol)
# reportedConditions: brain tissue of SD rats, [3H]CP-55940, 30° C. 60 min; read-out: IC50
pIC50: −log10 of the molar value.
Recorded measurements of pIC50, one per entry

molecule	targetSystem	pIC50
CCC(C)c1nc(-c2nn(-c3ccc(Cl)cc3Cl)c(-c3ccc(Cl)cc3)c2C)nn1C(C)C (stereo not shown) [Example 633]	Cannabinoid-1 receptor (CB1R) (Rattus norvegicus)	7.22
Cc1c(-c2nnc(C3(Cc4ccc(Cl)cc4)CC3)s2)nn(-c2ccc(Cl)cc2Cl)c1-c1ccc(Cl)cc1 [Example 471]	Cannabinoid-1 receptor (CB1R) (Rattus norvegicus)	7.57
Cc1c(-c2nnc(C3CCCO3)s2)nn(-c2ccc(Cl)cc2Cl)c1-c1ccc(Cl)cc1 (stereo not shown) [Example 359]	Cannabinoid-1 receptor (CB1R) (Rattus norvegicus)	7.56
Clc1ccc(-c2c(Cn3cncn3)c(-c3nnc(C4(c5ccc(Cl)cc5)CC4)o3)nn2-c2ccc(Cl)cc2Cl)cc1 [Example 313]	Cannabinoid-1 receptor (CB1R) (Rattus norvegicus)	8.66

###

// reported pIC50 per item
# targetSystem: Cannabinoid-1 receptor (CB1R) (Rattus norvegicus, UniProt P20272)
# Construct: The tissue obtained from the brain of SD rats was homogenized; from tissue; host or cells: brain of SD rats (membrane pellet of the homogenate)
# Sequence (P20272 whole entry): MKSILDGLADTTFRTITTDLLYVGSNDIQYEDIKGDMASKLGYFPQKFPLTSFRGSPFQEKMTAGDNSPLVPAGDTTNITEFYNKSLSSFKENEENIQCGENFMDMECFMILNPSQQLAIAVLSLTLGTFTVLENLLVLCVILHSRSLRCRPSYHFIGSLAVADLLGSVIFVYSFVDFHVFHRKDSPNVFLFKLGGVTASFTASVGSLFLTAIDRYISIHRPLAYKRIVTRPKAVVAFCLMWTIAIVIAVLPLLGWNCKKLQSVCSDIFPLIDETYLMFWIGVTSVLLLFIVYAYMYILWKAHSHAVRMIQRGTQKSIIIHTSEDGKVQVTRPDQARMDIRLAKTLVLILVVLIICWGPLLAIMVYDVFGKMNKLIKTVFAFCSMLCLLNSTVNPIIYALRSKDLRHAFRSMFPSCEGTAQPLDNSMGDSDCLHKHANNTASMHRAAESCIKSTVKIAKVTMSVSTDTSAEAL
# protocol: Cannabinoid-1 receptor (CB1R) binding affinity assay ([3H]CP-55940, rat CB-1 receptor binding protocol)
# reportedConditions: brain tissue of SD rats, [3H]CP-55940, 30° C. 60 min; read-out: IC50
pIC50: −log10 of the molar value.

compound	targetSystem	pIC50
Cc1c(-c2nnc(C3(c4ccc(Cl)cc4)CC3)o2)nn(-c2c(Cl)cccc2Cl)c1-c1ccc(Cl)cc1	Cannabinoid-1 receptor (CB1R) (Rattus norvegicus, UniProt P20272)	7.28
CC(C)(C)c1nnc(-c2nn(-c3ccc(Cl)cc3Cl)c(-c3ccc(Cl)cc3)c2C(C)(C)O)o1	Cannabinoid-1 receptor (CB1R) (Rattus norvegicus, UniProt P20272)	7.65
CCC(C)(C)c1nnc(-c2nn(-c3ccc(Cl)cc3Cl)c(-c3cccc(Cl)c3)c2C)s1	Cannabinoid-1 receptor (CB1R) (Rattus norvegicus, UniProt P20272)	6.58
Cc1c(-c2n[nH]c(C3CCCC3)n2)nn(-c2ccc(Cl)cc2Cl)c1-c1ccc(Cl)cc1	Cannabinoid-1 receptor (CB1R) (Rattus norvegicus, UniProt P20272)	6.16
Cc1c(-c2nnc(C3(C(F)(F)F)CC3)o2)nn(-c2ccc(Cl)cc2Cl)c1-c1ccc(Cl)cc1	Cannabinoid-1 receptor (CB1R) (Rattus norvegicus, UniProt P20272)	8.07
CCCCC(C)c1nnc(-c2nn(-c3ccc(Cl)cc3Cl)c(-c3ccc(Cl)cc3)c2C)s1 (stereo not shown)	Cannabinoid-1 receptor (CB1R) (Rattus norvegicus, UniProt P20272)	7.77
Cc1c(-c2nc(C(C)C)n(C)n2)nn(-c2ccc(Cl)cc2Cl)c1-c1ccc(Cl)cc1	Cannabinoid-1 receptor (CB1R) (Rattus norvegicus, UniProt P20272)	6.54

###

# targetSystem: Cannabinoid-1 receptor (CB1R) (Rattus norvegicus)
# Construct: The tissue obtained from the brain of SD rats was homogenized; from tissue; host or cells: brain of SD rats (membrane pellet of the homogenate)
# protocol: Cannabinoid-1 receptor (CB1R) binding affinity assay ([3H]CP-55940, rat CB-1 receptor binding protocol)
# reportedConditions: brain tissue of SD rats, [3H]CP-55940, 30° C. 60 min; read-out: IC50

molecule	IC50
CC(=O)c1c(-c2nnc(C(C)(C)C)o2)nn(-c2ccc(Cl)cc2Cl)c1-c1ccc(Cl)cc1	49.4 nM
Clc1ccc(-c2c(Cn3cncn3)c(-c3nnc(C4(c5ccc(Cl)cc5)CCC4)s3)nn2-c2ccc(Cl)cc2Cl)cc1	2.34 nM
Cc1c(-c2nnc(C(C)(C)c3ccccc3)s2)nn(-c2ccccc2Cl)c1-c1ccc(Cl)cc1	9.27 nM
CC(C)c1c(-c2nnc(C3(c4ccc(Cl)cc4)CC3)o2)nn(-c2ccc(Cl)cc2Cl)c1-c1ccc(Cl)cc1	9.72 nM
Cc1c(-c2nnc(C3CCCC3)s2)nn(-c2ccc(Cl)cc2Cl)c1-c1ccc(Br)cc1	18.1 nM
CC(C)(C)c1nnc(-c2nn(-c3ccc(Cl)cc3Cl)c(-c3ccc(Cl)cc3)c2CN2CCCC2=O)o1	93.9 nM
CCCCCn1nnc(-c2nn(-c3ccc(Cl)cc3Cl)c(-c3ccc(Cl)cc3)c2C)n1	122 nM
Cc1c(-c2nnc(C3(c4ccc(Cl)cc4)CC3)s2)nn(-c2ccccc2Cl)c1-c1ccc(Cl)cc1	7.53 nM
CC(C)(C)c1nnc(-c2nn(-c3ccc(Cl)cc3Cl)c(-c3ccc(Br)cc3)c2Cn2cnnn2)o1	12 nM
CCc1c(-c2nnc(C3(Cc4ccc(Cl)cc4)CC3)o2)nn(-c2ccc(Cl)cc2Cl)c1-c1ccc(Br)cc1	6.21 nM
CCC(C)c1nc(-c2nn(-c3ccc(Cl)cc3Cl)c(-c3ccc(Cl)cc3)c2C)nn1CC (stereo not drawn)	834 nM
Cc1c(-c2nnc(C3CCC3)s2)nn(-c2ccc(Cl)cc2Cl)c1-c1ccccc1	168 nM
CC(C)(c1ccc(Cl)cc1)c1nnc(-c2nn(-c3ccc(Cl)cc3Cl)c(-c3ccc(Cl)cc3)c2Br)o1	22.2 nM
FC(F)(F)C1(c2nnc(-c3nn(-c4ccc(Cl)cc4Cl)c(-c4ccc(Cl)cc4)c3Cn3cncn3)o2)CCC1	1.73 nM
Cc1c(-c2nnc(C(C)c3ccccc3)s2)nn(-c2ccc(Cl)cc2Cl)c1-c1ccc(Cl)cc1 (stereo not drawn)	11.2 nM
